Biological target: MAGL (Homo sapiens)
Sequence (Q99685 1-303): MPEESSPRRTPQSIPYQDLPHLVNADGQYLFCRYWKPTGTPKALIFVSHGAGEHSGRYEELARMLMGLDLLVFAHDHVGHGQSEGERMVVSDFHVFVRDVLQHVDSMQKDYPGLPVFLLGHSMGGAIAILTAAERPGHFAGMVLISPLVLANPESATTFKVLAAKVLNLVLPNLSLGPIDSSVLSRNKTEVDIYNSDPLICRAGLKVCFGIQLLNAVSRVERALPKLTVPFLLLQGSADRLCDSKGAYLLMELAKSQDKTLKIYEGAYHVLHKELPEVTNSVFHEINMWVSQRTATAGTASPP
pIC50: −log10 of the molar value.
metric.name: pIC50

Examples with answers:
molecule	pIC50
O=C(c1cnc(OCC2(C(F)(F)F)CC2)c(F)c1)N1CC2(CC(n3cnc(C4CC4)c3)C2)C1	7.30
O=C(N1C[C@H]2C[C@H](Oc3ccc(C(F)(F)F)c(Cl)c3)C[C@H]2C1)N1CC2(CC(n3cnc(C4CC4)n3)C2)C1	8.62
O=C(N1CC2(CC(n3cnc(C4CC4)n3)C2)C1)N1CCC(OCC2(C(F)(F)F)CC2)C(F)(F)C1 (centres unmarked)	6.79
O=C(N1CC(c2ccc(N3CC(C(F)(F)F)C3)nc2)C1)N1CC2(CC(n3cnc(C(F)(F)F)n3)C2)C1	8.55
NS(=O)(=O)c1ccc(F)c(CC2CCN(C(=O)N3CC4(CC(n5cnc(C6CC6)n5)C4)C3)CC2)c1	6.52

1 = NC(=O)C(c1ccc(F)cc1)C1CCN(C(=O)N2CC3(CC(n4cnc(C5CC5)n4)C3)C2)CC1 (single isomer, unassigned) [Example 291]
2 = O=C(N1CC(C23CC(c4nnc(C5CC5)[nH]4)(C2)C3)C1)N1CC2(CC(n3cnc(C4CC4)n3)C2)C1
3 = Cc1cn(C2CC3(C2)CN(C(=O)N2CC(OCc4ccc(S(F)(F)(F)(F)F)cc4)C2)C3)cn1
Request: Please order the records by their reported pIC50, lowest number first. API: response body holds the labels in the requested order.
Response: 3, 1, 2

###

Reported values: IC50 for MAGL (Homo sapiens), one per item.
metric.name: IC50 (nM)

molecule	subject.of.test	IC50 (nM)
Cn1ccc(OC2CC3(C2)CN(C(=O)N2CC4(CC(n5cnc(C6CC6)n5)C4)C2)C3)cc1=O [Example 66]	MAGL (Homo sapiens)	159
O=C(N1CC2(CC(Cc3ccc(OC(F)(F)F)nc3)C2)C1)N1CC2(CC(n3cnc(C4(O)CC4)n3)C2)C1 [Example 381]	MAGL (Homo sapiens)	0.44
CC(C)(C)c1nc(-c2ccc(C(=O)N3CC4(CC(n5cnc(C(F)(F)F)n5)C4)C3)cc2)no1 [Example 4]	MAGL (Homo sapiens)	11.4
O=C(N1CC2(CC(Oc3cnc(C(F)(F)F)cn3)C2)C1)N1CC2(CC(n3cnc(C4CC4)n3)C2)C1 [Example 70]	MAGL (Homo sapiens)	2.1
O=C(N1CC(c2ccc(N3CCC(O)(C(F)(F)F)C3)nc2)C1)N1CC2(CC(n3cnc(C4CC4)n3)C2)C1 (single isomer, unassigned) [Example 214]	MAGL (Homo sapiens)	1.6

P = CP(C)(=O)c1ccc(CC2CC3(C2)CN(C(=O)N2CC4(CC(n5cnc(C(F)(F)F)n5)C4)C2)C3)cc1 [Example 375]
Q = O=C(N1CC2(CC(Oc3ccc(OC(F)(F)F)cc3F)C2)C1)N1CC2(CC(n3cnc(C4CC4)n3)C2)C1 [Example 42]
Request: Select the item whose IC50 value is smaller, choosing between P and Q . Select an item and report its label.
Response: Q

###

Listed here: compounds with reported pIC50 for MAGL (Homo sapiens, UniProt Q99685).
pIC50: −log10 of the molar value.
metric.name: pIC50

Please review the entries below; each comes with its answer.
compound	metric.name	result.value
O=C(N1CC(Oc2cccc(C3CC3)c2F)C1)N1CC2(CC(n3cnc(C4CC4)n3)C2)C1 [Example 198]	pIC50	9.30
O=C(N1CC(Oc2ccc(C(F)(F)F)cc2)C1)N1CC2(CC(n3cnc(C4CC4)n3)C2)C1 [Example 202]	pIC50	9.15
O=C(N1CC2(CC(Oc3ccc(Cl)nc3)C2)C1)N1CC2(CC(n3cnc(C4CC4)n3)C2)C1 [Example 83]	pIC50	8.28
O=C(N1CC2(CC(n3cnc(C4CC4)n3)C2)C1)N1CC2(C1)CN(S(=O)(=O)CC(F)(F)F)C2 [Example 329]	pIC50	6.13
N#Cc1ccccc1S(=O)(=O)N1CC2(CN(C(=O)N3CC4(CC(n5cnc(C6CC6)n5)C4)C3)C2)C1 [Example 240]	pIC50	8.17

A = O=C(N1CC(OCc2cc(F)cc(C(F)(F)F)c2)C1)N1CC2(CC(n3cnc(C4CC4)n3)C2)C1 [Example 76]
B = CP(C)(=O)c1ccc(CC2CC3(C2)CN(C(=O)N2CC4(CC(n5cnc(C6CC6)n5)C4)C2)C3)cc1 [Example 376]
C = CC(C)(C)c1nc(-c2ccc(C(=O)N3CC4(C3)CC(O)(c3cnc(C5CC5)o3)C4)cc2)no1 [Example 179]
Request: Rank the 3 compounds: largest pIC50 first, smallest last. Order the labels as requested and give them as your answer.
Response: A, B, C
(A: 8.66, B: 8.39, C: 5.99)

I = CS(=N)(=O)c1cccc(CC2CC3(C2)CN(C(=O)N2CC4(CC(n5cnc(C(F)(F)F)n5)C4)C2)C3)c1 (stereo not drawn) [Example 431]
II = Cc1noc(C)c1S(=O)(=O)N1CC2(CN(C(=O)N3CC4(CC(n5cnc(C6CC6)n5)C4)C3)C2)C1 [Example 281]
Request: In terms of reported pIC50, does I or II have the smaller number? When you have decided, please share the label of that item.
Response: II
(II: 7.38, I: 7.99)

A = CC(C)(C)c1nc(-c2ccc(C(=O)N3CC4(CC(n5cnc(Cl)n5)C4)C3)cc2)no1 [Example 172]
B = O=C(N1CC2(CC(OCC3(C(F)(F)F)CC3)C2)C1)N1CC2(CC(n3cnc(C4CC4)n3)C2)C1 [Example 137]
C = O=C(N1CC(c2ccc(-c3n[nH]c(C4CCC4)n3)cc2)C1)N1CC2(CC(n3cnc(C4CC4)n3)C2)C1 [Example 471]
Request: Arrange these 3 compounds in increasing order of pIC50. A ranking is expressed here by listing the labels in the requested order.
Response: A, B, C

###

Target protein (sequence): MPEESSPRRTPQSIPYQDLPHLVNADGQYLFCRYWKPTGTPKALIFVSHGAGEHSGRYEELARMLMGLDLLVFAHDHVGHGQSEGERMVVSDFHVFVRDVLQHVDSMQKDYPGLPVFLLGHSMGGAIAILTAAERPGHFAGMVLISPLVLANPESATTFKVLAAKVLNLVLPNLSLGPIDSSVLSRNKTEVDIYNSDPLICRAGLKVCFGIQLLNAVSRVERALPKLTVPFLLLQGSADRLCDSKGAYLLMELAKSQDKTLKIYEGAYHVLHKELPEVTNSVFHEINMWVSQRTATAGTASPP
pIC50: −log10 of the molar value.
metric.name: pIC50

// solved cases for pIC50 follow
compound	metric.name	result.value
N#Cc1cc(CC2CC3(C2)CN(C(=O)N2CC4(CC(n5cnc(C6(O)CC6)n5)C4)C2)C3)ccc1C(F)(F)F [Example 365]	pIC50	8.74
O=C(N1CCC(C(c2ccc(F)cc2)c2nc(C3CC3)no2)CC1)N1CC2(CC(n3cnc(C4CC4)n3)C2)C1 (centres unmarked) [Example 207]	pIC50	9.00
NC(=O)C(c1ccc(F)cc1)C1CCN(C(=O)N2CC3(CC(n4cnc(C5CC5)n4)C3)C2)CC1 (single isomer, unassigned) [Example 301]	pIC50	7.01
CS(=N)(=O)c1cccc(CC2CC3(C2)CN(C(=O)N2CC4(CC(n5cnc(C6CC6)n5)C4)C2)C3)c1 (single isomer, unassigned) [Example 440]	pIC50	8.73
O=C(N1C[C@H]2C[C@H](Oc3ccc(C(F)(F)F)c(F)c3)C[C@H]2C1)N1CC2(CC(n3cnc(C4CC4)n3)C2)C1 [Example 117]	pIC50	8.46
O=C(N1CC2(CC(CNC3(C(F)(F)F)COC3)C2)C1)N1CC2(CC(n3cnc(C4CC4)n3)C2)C1 [Example 465]	pIC50	8.50
CP(C)(=O)c1ccc(CN2CC3(C2)CN(C(=O)N2CC4(CC(n5cnc(C(F)(F)F)n5)C4)C2)C3)cc1 [Example 379]	pIC50	5.48
O=C(N1CC2(CC(Oc3ccc(C(F)(F)F)cc3)C2)C1)N1CC2(CC(n3cnc(C4CC4)n3)C2)C1 [Example 43]	pIC50	10.00

1 = O=C(N1CC2(CC(n3cnc(C4CC4)n3)C2)C1)N1CC2(C1)CN(S(=O)(=O)c1c(F)cc(F)cc1F)C2 [Example 242]
2 = COc1ccc(OC2CC3(C2)CN(C(=O)N2CC4(CC(n5cnc(C6CC6)n5)C4)C2)C3)cn1 [Example 60]
Request: Hello, I am sorting some records. Could you say if 1 or 2 has the smaller pIC50 value? Which one? Tell me its label.
Response: 1
(1: 8.06, 2: 8.28)

1 = CS(=O)(=O)c1cccc(CN2CC3(C2)CN(C(=O)N2CC4(CC(n5cnc(C6CC6)n5)C4)C2)C3)c1 [Example 501]
2 = O=C(N1CC(c2nnc(-c3ccc(F)cc3F)[nH]2)C1)N1CC2(CC(n3cnc(C4CC4)n3)C2)C1 [Example 289]
3 = Cc1cc(F)c(F)cc1O[C@H]1C[C@@H]2CN(C(=O)N3CC4(CC(n5cnc(C6CC6)n5)C4)C3)C[C@@H]2C1 [Example 128]
4 = O=C(N1CC(OCc2ccc(C(F)(F)F)cc2)C1)N1CC2(CC(n3cnc(N4CCC4)n3)C2)C1 [Example 177]
Request: Sort entries by pIC50 from minimum to maximum value. Note for the reader: the ranking is given by listing the labels in the order requested.
Response: 4, 2, 1, 3

Attribution: patent US20240199587A1
